Counter-ions that a name gives are not always drawn.
MEASURED_METRIC: Ki (nM)
Please reply with the bare figure in nM and do not write the unit itself.

So the reported Ki for COC(=O)c1cccnc1N1CCN(CCCC(c2ccc(F)cc2)c2ccc(F)cc2)CC1 [2:4, hydrochloride] , on UniProtKB P14842, turned out to be 4

// Ki (UniProtKB P14842) for O=C(OCc1ccccn1)c1cccnc1N1CCN(CCCC(c2ccc(F)cc2)c2ccc(F)cc2)CC1 [2:10, hydrochloride] = 0.6

GET /values?item= CC(C)CCOC(=O)c1cccnc1N1CCN(CCCC(c2ccc(F)cc2)c2ccc(F)cc2)CC1 [2:7, hydrochloride] &system= UniProtKB P14842 returns Ki: 2.7

Fill in: UniProtKB P14842 Ki for CCOC(=O)c1cccnc1N1CCN(CCCC(c2ccc(F)cc2)c2ccc(F)cc2)CC1 [2:1, hydrochloride] = 5.7
